Target: Tyrosine-protein kinase ABL1 (Homo sapiens)
Sequence (P00519 whole entry): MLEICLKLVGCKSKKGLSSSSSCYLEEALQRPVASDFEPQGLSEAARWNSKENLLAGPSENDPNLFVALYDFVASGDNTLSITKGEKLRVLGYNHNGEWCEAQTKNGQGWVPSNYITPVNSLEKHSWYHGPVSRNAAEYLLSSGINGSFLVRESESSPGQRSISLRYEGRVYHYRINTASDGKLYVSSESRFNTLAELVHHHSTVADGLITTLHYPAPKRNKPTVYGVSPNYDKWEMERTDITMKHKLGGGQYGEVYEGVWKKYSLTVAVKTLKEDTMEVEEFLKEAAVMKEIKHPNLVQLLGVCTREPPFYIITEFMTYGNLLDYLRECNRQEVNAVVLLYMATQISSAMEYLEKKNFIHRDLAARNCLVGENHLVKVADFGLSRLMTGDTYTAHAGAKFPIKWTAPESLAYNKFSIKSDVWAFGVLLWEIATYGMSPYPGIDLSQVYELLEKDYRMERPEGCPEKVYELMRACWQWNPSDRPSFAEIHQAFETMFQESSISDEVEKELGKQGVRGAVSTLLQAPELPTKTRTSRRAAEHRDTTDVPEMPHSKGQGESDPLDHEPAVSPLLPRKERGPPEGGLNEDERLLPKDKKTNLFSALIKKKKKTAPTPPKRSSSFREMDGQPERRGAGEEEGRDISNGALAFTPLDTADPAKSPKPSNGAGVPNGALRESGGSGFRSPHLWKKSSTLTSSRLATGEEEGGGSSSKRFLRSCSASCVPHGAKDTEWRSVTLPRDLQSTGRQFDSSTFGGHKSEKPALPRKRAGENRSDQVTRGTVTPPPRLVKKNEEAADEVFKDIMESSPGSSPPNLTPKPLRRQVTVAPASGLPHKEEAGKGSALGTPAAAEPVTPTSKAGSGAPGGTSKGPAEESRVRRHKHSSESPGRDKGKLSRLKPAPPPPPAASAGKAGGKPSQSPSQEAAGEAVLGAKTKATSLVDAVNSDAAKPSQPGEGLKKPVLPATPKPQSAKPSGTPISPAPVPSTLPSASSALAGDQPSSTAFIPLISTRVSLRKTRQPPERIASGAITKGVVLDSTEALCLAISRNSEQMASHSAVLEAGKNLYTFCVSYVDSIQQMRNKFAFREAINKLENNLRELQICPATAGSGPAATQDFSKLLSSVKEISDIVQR
Assay: Inhibition of recombinant Abl1 (unknown origin) using poly-Glu-Tyr peptide as substrate
Property Measured: pIC50
Would you please state pIC50, meaning minus log10 of the concentration in mol/L, as a bare number?

A selection of reference data follows.
> print(dat)
                               smiles.entry                            assayed.system  property.measured  data.value
1  C#Cc1cccc(Nc2ncnc3ccc(S(=O)(=O)n4ccc(/C=C/C(=O)Nc5ccccc5N)c4)cc23)c1  Tyrosine-protein kinase ABL1 (Homo sapiens)              pIC50        4.82
2  C#Cc1cccc(Nc2ncnc3ccc(OCc4ccc(C(=O)Nc5ccccc5N)cc4)cc23)c1  Tyrosine-protein kinase ABL1 (Homo sapiens)              pIC50        5.15
3  Nc1ccccc1NC(=O)c1ccc(COc2ccc3ncnc(Nc4cccc(Br)c4)c3c2)cc1  Tyrosine-protein kinase ABL1 (Homo sapiens)              pIC50        4.96

From here, focus on the item given below.
[Q] In one line, give reported pIC50 of the entry C#Cc1cccc(Nc2ncnc3ccc(S(=O)(=O)n4ccc(/C=C/C(=O)NO)c4)cc23)c1 .
[A] 4.57

----------
Molecular target: Protein deacetylase HDAC6 (Homo sapiens, UniProt Q9UBN7)
Sequence (Q9UBN7 whole entry): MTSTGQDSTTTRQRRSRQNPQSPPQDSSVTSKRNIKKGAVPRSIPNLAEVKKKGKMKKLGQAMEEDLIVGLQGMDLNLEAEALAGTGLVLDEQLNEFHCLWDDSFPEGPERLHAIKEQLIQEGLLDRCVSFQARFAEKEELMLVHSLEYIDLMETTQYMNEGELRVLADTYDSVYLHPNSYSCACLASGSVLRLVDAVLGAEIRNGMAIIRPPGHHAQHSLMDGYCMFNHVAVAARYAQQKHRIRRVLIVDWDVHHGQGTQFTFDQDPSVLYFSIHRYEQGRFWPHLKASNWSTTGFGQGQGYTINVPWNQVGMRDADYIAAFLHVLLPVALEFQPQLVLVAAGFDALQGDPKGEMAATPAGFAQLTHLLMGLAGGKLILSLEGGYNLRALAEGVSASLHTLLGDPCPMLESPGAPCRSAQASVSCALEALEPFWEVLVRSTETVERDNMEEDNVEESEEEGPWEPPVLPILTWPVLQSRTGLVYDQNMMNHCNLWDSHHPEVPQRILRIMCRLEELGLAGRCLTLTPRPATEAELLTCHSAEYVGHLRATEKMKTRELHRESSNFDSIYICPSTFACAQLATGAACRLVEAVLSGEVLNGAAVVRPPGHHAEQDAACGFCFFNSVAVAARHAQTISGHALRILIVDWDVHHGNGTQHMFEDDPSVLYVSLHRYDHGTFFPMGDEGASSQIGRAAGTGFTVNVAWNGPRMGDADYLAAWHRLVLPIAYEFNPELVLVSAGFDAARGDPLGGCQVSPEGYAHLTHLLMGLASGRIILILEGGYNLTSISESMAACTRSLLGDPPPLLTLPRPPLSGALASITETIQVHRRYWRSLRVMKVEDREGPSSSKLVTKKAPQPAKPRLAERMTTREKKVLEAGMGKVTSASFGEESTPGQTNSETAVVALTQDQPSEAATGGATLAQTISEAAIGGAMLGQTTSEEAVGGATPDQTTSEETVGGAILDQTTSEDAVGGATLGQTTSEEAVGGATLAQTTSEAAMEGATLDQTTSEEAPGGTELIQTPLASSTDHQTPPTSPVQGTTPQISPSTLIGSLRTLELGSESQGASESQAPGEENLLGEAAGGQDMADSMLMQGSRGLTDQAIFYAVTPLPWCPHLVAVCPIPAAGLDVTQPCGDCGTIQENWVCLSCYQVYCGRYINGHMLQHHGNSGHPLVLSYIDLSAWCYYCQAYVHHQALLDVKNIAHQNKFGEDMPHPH
Test: Inhibition of human recombinant HDAC6 expressed in human HEK293 cells using Ac-NH-GGK(Ac)-AMC as substrate after 180 mins by fluorescence assay
IC50 overview

Example entries begin here.
> print(dat)
                               smiles.entry  data.value
1  C#Cc1cccc(Nc2ncnc3ccc(S(=O)(=O)n4ccc(/C=C/C(=O)NO)c4)cc23)c1   0.0073 µM
2  C#Cc1cccc(Nc2ncnc3ccc(NC(=O)c4ccc(C(=O)Nc5ccccc5N)nc4)cc23)c1     > 32 µM
3  Nc1ccccc1NC(=O)c1ccc(COc2ccc3ncnc(Nc4cccc(Br)c4)c3c2)cc1     > 32 µM
4  C#Cc1cccc(Nc2ncnc3cc(NC(=O)c4ccc(C(=O)Nc5ccccc5N)s4)ccc23)c1     > 32 µM
5  C#Cc1cccc(Nc2ncnc3cc(OCCOC)c(OCCOC)cc23)c1     > 32 µM

We next turn to a different compound, shown below.
[Q] Note down IC50 recorded for C#Cc1cccc(Nc2ncnc3ccc(S(=O)(=O)n4ccc(/C=C/C(=O)Nc5ccccc5N)c4)cc23)c1
[A] > 32 µM
